SYSTEM_TESTED: vasopressin-1 receptor of rat liver cell membranes (rat) (UniProt P30560)
Sequence (P30560 whole entry): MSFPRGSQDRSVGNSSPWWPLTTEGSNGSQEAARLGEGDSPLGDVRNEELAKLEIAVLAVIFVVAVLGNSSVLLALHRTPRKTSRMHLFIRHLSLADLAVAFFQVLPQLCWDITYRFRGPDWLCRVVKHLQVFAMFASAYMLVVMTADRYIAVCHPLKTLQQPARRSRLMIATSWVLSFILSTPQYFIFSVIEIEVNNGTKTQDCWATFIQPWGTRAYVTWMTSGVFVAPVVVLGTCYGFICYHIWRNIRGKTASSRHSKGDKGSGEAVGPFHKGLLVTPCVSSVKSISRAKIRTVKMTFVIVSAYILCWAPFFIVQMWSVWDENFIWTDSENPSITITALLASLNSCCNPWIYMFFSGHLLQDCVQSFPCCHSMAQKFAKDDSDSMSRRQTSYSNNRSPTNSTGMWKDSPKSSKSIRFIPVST
EXPERIMENT_DESCRIPTION: competition with 3H-vasopressin-1 antagonist on rat liver membranes, metallopeptide at 1 µM
RECORDED_ENDPOINT: % Inhibition at 1 µM
Provide a numeric answer, followed by its unit.

Re-complexed Ala-Tyr-Ile-Cys-Gln-Asn-Ala-Pro-Leu-Gly-NH2 (SEQ ID NO:157) (peptide) = 0%
Re-complexed Ala-Tyr-Ile-Gln-Asn-Ala-Ala-Leu-Cys-Gly-NH2 (SEQ ID NO:151) (peptide) = 0%
Re-complexed Ala-Tyr-Ile-Gln-Asn-Cys-Ala-Pro-Leu-Gly-NH2 (SEQ ID NO:155) (peptide) = 0%
Re-complexed Ala-Tyr-Ile-Gln-Asn-Ala-Pro-Leu-Gly-Cys-NH2 (SEQ ID NO:149) (peptide) = 0%
Re-complexed Ala-Tyr-Ile-Gln-Cys-Asn-Ala-Pro-Leu-Gly-NH2 (SEQ ID NO:156) (peptide) = 0%

Kindly consider the entry below.
Asked: Item Re-complexed Ala-Tyr-Ile-Gln-Asn-Ala-Cys-Ala-Leu-Gly-NH2 (SEQ ID NO:154) (peptide) has what recorded % Inhibition at 1 µM?
Given back: 0%

* * *

SYSTEM_TESTED: uPA receptor (urokinase-type plasminogen activator receptor) on U937 cells (UniProt Q03405)
Sequence (Q03405 23-305): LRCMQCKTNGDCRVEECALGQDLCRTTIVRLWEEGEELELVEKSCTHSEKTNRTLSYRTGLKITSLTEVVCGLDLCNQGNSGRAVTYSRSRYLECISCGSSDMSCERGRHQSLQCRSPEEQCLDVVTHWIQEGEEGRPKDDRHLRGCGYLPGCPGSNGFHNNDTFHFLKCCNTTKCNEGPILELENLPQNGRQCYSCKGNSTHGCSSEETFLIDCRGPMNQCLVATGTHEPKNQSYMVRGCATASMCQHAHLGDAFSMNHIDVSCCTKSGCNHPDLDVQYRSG
EXPERIMENT_DESCRIPTION: competition receptor-binding assay on U937 cells, ATF as competing ligand, metallopeptide at 1 µM
RECORDED_ENDPOINT: % Inhibition at 1 µM (%)
Respond with the bare value in %.

Previously resolved entries follow.
Re-complexed Ac-Val-Ser-Asn-Lys-Tyr-Phe-Cys-Ser-Asn-Ile-His-Trp-NH2 (SEQ ID NO:8) (peptide) = 0
Re-complexed Ac-Val-Ser-Asn-Lys-Tyr-Phe-Ser-Asn-Ile-Cys-His-Trp-NH2 (SEQ ID NO:11) (peptide) = 0
Re-complexed Ac-Val-Ser-Asn-Lys-Cys-Tyr-Phe-Ser-Asn-Ile-His-Trp-NH2 (SEQ ID NO:6) (peptide) = 13
Re-complexed Ac-Val-Ser-Cys-Asn-Lys-Tyr-Phe-Ser-Asn-Ile-His-Trp-NH2 (SEQ ID NO:4) (peptide) = 0
Re-complexed Ac-Val-Ser-Asn-Lys-Tyr-Phe-Ser-Asn-Ile-His-Cys-Trp-NH2 (SEQ ID NO:3) (peptide) = 106
Re-complexed Ac-Val-Ser-Asn-Cys-Lys-Tyr-Phe-Ser-Asn-Ile-His-Trp-NH2 (SEQ ID NO:5) (peptide) = 0

// below: % Inhibition at 1 µM requested for another substance
Asked: Query: % Inhibition at 1 µM; subject: Re-complexed Ac-Val-Ser-Asn-Lys-Tyr-Phe-Ser-Cys-Asn-Ile-His-Trp-NH2 (SEQ ID NO:9) (peptide)
Given back: 35

* * *

We begin with a simple list: items and their reported % Inhibition at 1 µM.
SYSTEM_TESTED: vasopressin-1 receptor of rat liver cell membranes (rat) (UniProt P30560)
EXPERIMENT_DESCRIPTION: competition with 3H-vasopressin-1 antagonist on rat liver membranes, metallopeptide at 1 µM

Worked set:
Re-complexed Ala-Tyr-Ile-Gln-Asn-Ala-Ala-Leu-Gly-Cys-NH2 (SEQ ID NO:150) (peptide) = 0%
Re-complexed Ala-Tyr-Ile-Gln-Asn-Ala-Ala-Cys-Leu-Gly-NH2 (SEQ ID NO:152) (peptide) = 1%
Re-complexed Ala-Tyr-Ile-Gln-Asn-Ala-Cys-Pro-Leu-Gly-NH2 (SEQ ID NO:153) (peptide) = 0%

Asked: State the recorded % Inhibition at 1 µM for this entry: Re-complexed Ala-Tyr-Cys-Ile-Gln-Asn-Ala-Pro-Leu-Gly-NH2 (SEQ ID NO:158) (peptide)
Given back: 1%
